Give solubility at 24 h for every item shown.
Test: Solubility of model compounds in aqueous solutions of polymer D4.1 (mixed directly with polymeric solution; Table 4B)
Assay type: physicochemical
Settings: 5% (w/v) aqueous solution of diblock copolymer D4.1, aqueous with cosolvent or surfactant or cyclodextrin, thermodynamic from solid; D4.1 polymer concentration 5 w/v %, room temperature, duplicate
Procedure: The solubility of the other model compounds in aqueous solutions of polymer D4.1 was determined by mixing the model compound directly with the polymeric solution for 24 hours at room temperature. Tested polymer concentrations were 1, 5, 10 and 20% (w/v). The obtained suspension was then filtered through a 0.45 μm PVDF membrane filter. […] (A polymer solution of the same concentration as the sample to be analysed was used as blank).
Numbers only, in µg/mL.

Reference set, count: 3
smiles notation | endpoint result
Nc1nc(Nc2ccc(S(N)(=O)=O)cc2)nn1C(=O)c1c(F)cccc1F | 2710
Cc1cc2c(cc1-c1cc(/C=C3\SC(=O)NC3=O)ccc1OC(F)(F)F)C(C)(C)CCC2(C)C | 130
CC(=O)NC[C@H]1CN(c2ccc(N3Cc4cn(C)nc4C3)c(F)c2)C(=O)O1 | 60

Now consider the entry below.
Task: Record request: solubility at 24 h value, item "Cc1cc(C=CC#N)cc(C)c1Nc1ccnc(Nc2ccc(C#N)cc2)n1"
Result: 120
